Catalogue of IC50 readings, one per entry.
Biological target: Recombinant human renin (Homo sapiens)
Construct: isolate the active form (residues 67-406)
Sequence (P00797 67-406): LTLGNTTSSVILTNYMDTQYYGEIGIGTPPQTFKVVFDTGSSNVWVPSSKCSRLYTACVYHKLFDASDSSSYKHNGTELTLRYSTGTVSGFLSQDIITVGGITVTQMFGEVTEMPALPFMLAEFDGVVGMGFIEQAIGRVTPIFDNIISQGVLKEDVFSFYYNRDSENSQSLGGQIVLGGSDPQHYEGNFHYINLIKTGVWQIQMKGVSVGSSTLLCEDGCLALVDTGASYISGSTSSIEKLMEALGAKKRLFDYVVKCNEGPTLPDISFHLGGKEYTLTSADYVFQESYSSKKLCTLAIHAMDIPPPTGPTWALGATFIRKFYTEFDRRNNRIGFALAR
Assay: In vitro enzymatic activity assay of renin inhibitors (fluorogenic peptide substrate)
Conditions: recombinant human renin 3 nM, substrate 1 μM, 37° C., pH 7.4, fluorescence; read-out: IC50 of Exemplified Compounds Against Renin

Worked examples follow.
COMPOUND	RESULT
O=C(C1=C(c2ccc(OCCOc3c(F)ccc(F)c3Cl)cc2)CCN[C@@H]1CO)N(Cc1cccc(Cl)c1Cl)C1CC1 [Compound 11]	< 100 nM
COCOC[C@H]1NCCC(c2ccc(OCCOc3c(Cl)cccc3Cl)cc2)=C1C(=O)N(Cc1cccc(Cl)c1Cl)C1CC1 [Compound 5]	< 100 nM

Next:
Give the reported IC50 for this compound. O=C(C1=C(c2ccc(OCCOc3ccccc3Cl)cc2)CCNC1CO)N(Cc1cccc(Cl)c1Cl)C1CC1 (stereo not shown) [Compound 2] > 1000 nM
